Test system: MRSA 70
Experiment: MIC, agar plate dilution method
Format: cell-based, methicillin-resistant Staphylococcus aureus
Details: Staphylococcus aureus; MRSA 70; 37° C., 20 hours; read-out: MIC
Protocol: Assay of minimum inhibitory concentration (MIC) was performed according to the agar plate dilution method (Method of Japan Society of Chemotherapy, CHEMOTHERAPY 29, 76-79, 1981). Test organisms used were 27 types of microorganisms including clinical isolates of methicillin-resistant Staphylococcus aureus. […] After culturing at 37° C. for 20 hours, MIC was determined by macroscopically confirming the growth of microorganisms. […]
recorded.endpoint: MIC (µg/mL)
Unit µg/mL implied. Number only.

Ask: For the compound C=C(C/C=C(\C)CCC=C(C)C)CCC(C)(C)/C=C/CC/C(C)=C\COC(COP(=O)(O)OC1OC(C(N)=O)C(C)(O)C(OC(N)=O)C1OC1OC(COC2OC(CO)C(O)C(O)C2O)C(OC2OC(C)C(OC3OC(C(=O)O)C(O)C(O)C3O)C(O)C2NC(C)=O)C(O)C1NC(C)=O)C(=O)O (stereo not shown) [K04-0144A] , give its measured MIC value.
Result: 0.06

Ask: Look up and report measured MIC for this entry: CC(=O)NC[C@H]1CN(c2ccc(N3CCOCC3)c(F)c2)C(=O)O1 [linezolid, reference compound]
Result: 0.5

Ask: Tell me MIC reported for NCC[C@H](O)C(=O)N[C@@H]1C[C@H](N)[C@@H](O[C@H]2O[C@H](CN)CC[C@H]2N)[C@H](O)[C@H]1O[C@H]1O[C@H](CO)[C@@H](O)[C@H](N)[C@H]1O [arbekacin, reference compound]
Result: 0.5

###

System: S. aureus Smith
Assay: MIC, agar plate dilution method
Assay type: cell-based
Details: Staphylococcus aureus; S. aureus Smith; 37° C., 20 hours; read-out: MIC
recorded.endpoint: MIC (µg/mL)
A number alone suffices; assume µg/mL.

Ask: Report its MIC with S. aureus Smith as the test system: C=C(C/C=C(\C)CCC=C(C)C)CCC(C)(C)/C=C/CC/C(C)=C\COC(COP(=O)(O)OC1OC(C(N)=O)C(C)(O)C(OC(N)=O)C1OC1OC(CO)C(OC2OC(C)C(OC3OC(C(N)=O)C(O)C(O)C3O)C(O)C2NC(C)=O)C(O)C1NC(C)=O)C(=O)O (centres unmarked) [K04-0144C]
Result: 1

Ask: # return MIC for C=C(C/C=C(\C)CCC=C(C)C)CCC(C)(C)/C=C/CC/C(C)=C\COC(COP(=O)(O)OC1OC(C(N)=O)C(C)(O)C(OC(N)=O)C1OC1OC(CO)C(OC2OC(C)C(OC3OC(C(=O)O)C(O)C(O)C3O)C(O)C2NC(C)=O)C(O)C1NC(C)=O)C(=O)O (centres unmarked) [K04-0144B] , test system: S. aureus Smith
Result: 2
